IC50 for 3-hydroxy-3-methylglutaryl-coenzyme A reductase (Rattus norvegicus, UniProt P51639) - collated from the literature.
Quick rule for you: IC50 under 100 nM gets class 1, anything else gets class 0.

Consider the worked cases shown below.
INSERT INTO measurements (compound, cat) VALUES
  ('CCC[C@](C)(CC)C(=O)O[C@H]1C[C@H](O)C=C2C=C[C@H](C)[C@H](CC[C@@H](O)C[C@@H](O)CC(=O)O)[C@H]21', 'class 1'),
  ('CCOC(=O)CC(O)CC(O)/C=C/c1c(-c2ccc(F)cc2)c2ccccc2n1CC (centres unmarked)', 'class 0'),
  ('COC(=O)CC(O)CC(O)/C=C/c1c(-c2ccc(F)cc2)c2ccccc2n1C (centres unmarked)', 'class 0'),
  ('O=C(O)C[C@H](O)C[C@H](O)/C=C/C1=C(c2ccc(F)cc2)c2ccccc2C12CCCC2 (relative stereo)', 'class 1'),
  ('O=C1C[C@H](O)[C@@H](F)[C@@H](CSc2c(Cl)cc(Cl)cc2C(c2ccc(F)cc2)c2ccc(F)cc2)O1', 'class 0');

*Q* Record C[C@@H]1C[C@H](OC(=O)C(C)(C)CCCCOc2ccccc2)CC(C)(C)C1 (relative stereo) : is its IC50 strictly below 100 nM?
*A* class 1

*Q* Threshold test, IC50 < 100 nM: CCOC(=O)CC(O)CC(O)/C=C/c1c(-c2ccc(F)cc2)c2ccc(OCc3ccccc3)cc2n1C(C)C (centres unmarked)
*A* class 1

*Q* Take the compound CC(=O)c1cccc(OC(C)(C)C(=O)O[C@H]2C[C@H](C)CC(C)(C)C2)c1 (relative stereo) and say whether its IC50 is less than 100 nM.
*A* class 1

*Q* Please indicate whether the reported IC50 of CC(C)c1c(/C=C/[C@@H](O)C[C@@H](O)CC(=O)O)oc2c(-c3ccc(F)cc3)cccc12 (relative stereo) is strictly below 100 nM.
*A* class 0
